Data origin: ChEMBL document CHEMBL1201862

- Tested on: NCI-H522
- Experiment Notes: NCI tumour cell line growth inhibition, 48 h
The source made the active and inactive calls. No stated cut-off is given here; in the data, active = GI50 up to about 1.1 µM and inactive = higher.
Outcome (select one): label 1 (active), label 0 (inactive)

[
  {
    "Molecule": "O=C1C(=O)c2ccccc2C=C1[N+](=O)[O-]",
    "Target Under Test": "NCI-H522",
    "Classification": "label 0"
  },
  {
    "Molecule": "O=C(/C=C/c1ccc(O)c(O)c1)OCCc1cccc2ccccc12",
    "Target Under Test": "NCI-H522",
    "Classification": "label 1"
  },
  {
    "Molecule": "COC(C)(C)[C@H](O)C(O)CC(C)[C@@H]1CCC23CC12CCC1[C@@]2(C)CCC(OC(C)=O)C(C)(C)C2CC(OC2OC(COC(C)=O)C(O)C(O)C2O)[C@]13C (stereo partly specified)",
    "Target Under Test": "NCI-H522",
    "Classification": "label 0"
  },
  {
    "Molecule": "NC1=NN(c2ccccc2)C(=O)C1C(=O)C(=O)Nc1nccs1 (stereo unspecified)",
    "Target Under Test": "NCI-H522",
    "Classification": "label 0"
  },
  {
    "Molecule": "O=C1CSCC(=O)Nc2ccccc2N1",
    "Target Under Test": "NCI-H522",
    "Classification": "label 0"
  },
  {
    "Molecule": "COC1=CC(=O)N(C)C(O)C1(C#N)OC1OC(CO)C(O)C(O)C1O (stereo unspecified)",
    "Target Under Test": "NCI-H522",
    "Classification": "label 0"
  },
  {
    "Molecule": "CCc1n[nH]c(=O)n1N1C(=O)C2CCCCC2C1=O (stereo unspecified)",
    "Target Under Test": "NCI-H522",
    "Classification": "label 0"
  },
  {
    "Molecule": "C[N+]1(CCCCN2c3ccccc3Sc3cc(N=[N+]=[N-])ccc32)CCN(C(=O)CCNC(=O)Cc2ccc(C(=O)c3ccccc3)cc2)CC1",
    "Target Under Test": "NCI-H522",
    "Classification": "label 0"
  }
]

Q: So what was the verdict on COc1nc2c(nc(N)n2C2OCC(O)C(O)C2O)c(=O)n1C (stereo unspecified) in this test?
A: label 0

Q: So what was the verdict on COc1cc2c(cc1OC)-c1cc3ccccc3c[n+]1CC2 in this test?
A: label 0

Q: So what was the verdict on CCCCC/C=C1/CC(CO)(COC(=O)CC(C(C)C)C(C)C)OC1=O (stereo unspecified) in this test?
A: label 0

Q: So what was the verdict on O=C(/N=C1/OC(CN2CCOCC2)CN1C(=O)Nc1ccccc1)Nc1ccccc1 (stereo unspecified) in this test?
A: label 0

Q: So what was the verdict on Cc1ccc2c(c1)C(=O)/C(=C\c1ccccc1)CCS2(=O)=O in this test?
A: label 0

Q: So what was the verdict on COC(=O)C1CCc2nnc(-c3ccccc3)n21 (stereo unspecified) in this test?
A: label 0

Q: So what was the verdict on COC(=O)C1=NN2c3ccccc3CN([C@@H](C)c3ccccc3)C(=O)[C@@H]2[C@H]1c1ccccc1 in this test?
A: label 0
